- tested_system: pooled human IgG (human IgG1, 2, 3 and 4)
# Lookup of reported Enzyme Activity Endpoint Assay (purified): IgG keyed by entry
Report only the number, with the unit ng/µL understood.

Examples with their reported Enzyme Activity Endpoint Assay (purified): IgG follow.
1) PRT-633 (protein) MQITSVWTKGVTPLTPEQFTNNNEDVIHAPYKANQGWYDITKAFDGKDNLLCGAATAGNMLHWWFDQNKTEIEAYLSKHPEKQKIIFNNQELFDLKAAIDTKDSQTNSQLFNYFRDKAFPNLSARQLGVMPDLVLDMFINGYYLNVFKTQSTDVNRPYQDKDKRGGIFDAVFTRGDQTTLLTARHDLKNKGLNDISTIIKQELTEGKALALSHTYANVSISHVINLWGADFNAEGNLEAIYVTDSDANASIGMKKYFVGINAHGHVAISAKKIEGENIGAQVLGLFTLSSGKDIWQKLSLEHHHHHH | 0
2) PRT-495 (protein) MVTSVWTKGVTPPTDFIKGEDVFHAPYKAGQGWYDITKAFDGGDDLLCGAATAGNMLHWWFDQNKEYIEAYLKKHPEKQKIMFGDQELLDVRKAINTKGSQKNSELFNYFRDKAFPNLSARRLGVMPDLVLDMFINGYYLNVTKTQTTDVNRTYQEKDKRGGIFDAVFTRGDQSKLLTSRHDFKEKGLKEISDLIKQELTEGKALGLSHTYANVRINHVINLWGADFDSDGNLKAIYVTDSDSNASIGMKKYFVGVNSAGKVAISAKEIKEDNIGAQVLGLFTLSTGQDIWNQTNLEHHHHHH | 0
3) PRT-690 (protein) MQITSVWTKGVTPPTPEQFRYNNEDVIHAPYLANQGWYDITKTFNGKDNLLCGAATAGNMLHWWFDQNKTEIEAYLSKYPEKQKIIFNNQELFDLRAAINTKDSQTNSQLFNYFRDKAFPNLSARQLGVMPDLVLDMFINGYYLNVFKTQSTDVNRPYQDKDKRGGIFDAVFNRGDQTTLLTARHDLKNKTLNDISTLIKQELSSGKALALSHTYANVSISHVINLWGADFNAEGNLEAIYVTDSDANSNIGMKKYKVGVNAHGKVAISAKKIEGENIGAQVLGLFTLSSGKDIWQKLSLEHHHHHH | 0

Request: For PRT-397 (protein) MVTSVWTKGVTPPADFTQGEDVFHAPYVANQGWYDITKTFNGKDDLLCGAATAGNMLHWWFDQNKEYIEAYLKKHPEKQKIMFGDQELLDVRKAINTKGSQKNSELFNYFRDKAFPNLSARRLGVMPDLVLDMFINGYYLNVTKTQTTDVNRTYQEKDKRGGIFDAVFTRGDQSKLLTSRHDFKEKGLKEISDLIKQELTEGKALGLSHTYANVGINHVINLWGADFDSDGNLKAIYVTDSDSNASIGMKKYFVGVNSAGKVAISAKEIKEDNIGAQVLGLFTLSTGQDIWNQTN , what is its reported Enzyme Activity Endpoint Assay (purified): IgG?
Response: 93

Request: For PRT-398 (protein) MVTSVWTKGVTPPADFTQGEDVFHAPYVANQGWYDITKTFNGKDDLLCGAATAGNMLHWWFDQNKEYIEAYLKKHPEKQKIMFGDQELLDVRKAINTKGSQKNSELFNYFRDKAFPNLSARRLGVMPDLVLDMFINGYYLNVTKTQTTDVNRTYQEKDKRGGIFDAVFTRGDQSKLLTSRHDFKEKGLKEISDLIKQELTEGKALGLSHTYANVRINHVINLWGADFDSDGNLKAIYVTDSDSNASIGMKKYDVGVNSAGKVAISAKEIKEDNIGAQVLGLFTLSTGQDIWNQTN , what is its reported Enzyme Activity Endpoint Assay (purified): IgG?
Response: 0

Request: For PRT-428 (protein) MTITSVWTKGVTPPTPEDFRYNNEDVLHAPYVANQGWYDITKTFDGKDNLLCGAATAGNMLHWWFDQNKEEIERYLKKHPEKQKIIFNNQELFDVKAAIDTKDSQTNSKLFNYFRDKAFPNLSARQLGVMPDLVLDMFINGYYLNLGKTQSTDVNRPYQDKDKRGGIFDAVFTRGDQTTLLTARHDLKNKGLNEISDLIKQELTEGKALALSHTYANVRINHVINLWGADFDAEGNLIAIYVTDSDTNASIGMKKYFVGVNANGKVAISAKKIEGDNIGAQVLGLFTLSTGQDIWQKLS , what is its reported Enzyme Activity Endpoint Assay (purified): IgG?
Response: 90

Request: For PRT-430 (protein) MSQTEDSESLQRLRDIEDFQAEKKKQNVVYTKWLDGVDVKDHDFRKIVDGNSAYYATPLLNGRGFYDINKDFNRDSDKCAAAVAANMFHYWLDRNRDNVDRFLRQNPEKHGIIELPDGQLKLSDFLNTYESDDGYRDKSKLFDFISNNFNGPVWTDKLLDNYINGYAYNYKYGRTIEDPTKNTSKINFFKEVFNEKILTNNHSIRNQNEFSVLLSEALYTGKAIGLSYGPAGLRHSLGHIISVWGADLDADGNVVAIYVTDSDDKKLTIGDERVGLKRYKISTDDEGRLRLTAYEETHNTGGQIRGLWTLDTGKQAWADYFDKTEQTGTDQAEQ , what is its reported Enzyme Activity Endpoint Assay (purified): IgG?
Response: 0

Request: For PRT-423 (protein) MTITSVWTKGVTPPTPEDFRYNNEDVLHAPYVANQGWYDITKTFDGKDNLLCGAATAGNMLHWWFDQNKEEIERYLKKHPEKQKIIFNNQELFDVKAAIDTKDSQTNSKLFNYFRDKAFPNLSARQLGVMPDLVLDMFINGYYLNLGKTQSTDVNRPYQDKDKRGGIFDAVFTRGDQTTLLTARHDLKNKGLNEISDLIKQELTEGKALALSHTYANVRINHVINLWGADFDAEGNLIAIYVTDSDANASIGMKKYFVGRNANGKVAISAKKIEGDNIGAQVLGLFTLSTGQDIWQKLS , what is its reported Enzyme Activity Endpoint Assay (purified): IgG?
Response: 1660
